target: shADAM9-His (His-tagged soluble human ADAM9) (human) (UniProt Q13443); test: BIACORE SPR; antibody captured, huADAM9-His as analyte
Endpoint name: koff (s⁻¹)
Supply the numeric figure in s⁻¹, leaving out any unit text.

Guide cases for koff, answers given:
1. hMAB-A (2B.2) (antibody, V domains shown) VH: EVQLVESGGGLVKPGGSLRLSCAASGFTFSSYWMHWVRQAPGKGLEWVGEIIPIFGHTNYNEKFKSRFTISLDNSKNTLYLQMGSLRAEDTAVYYCARGGYYYYIGKGVLDYWGQGTTVTVSS VL: DIVMTQSPDSLAVSLGERATISCKASQSVDYSGDSYMNWYQQKPGQPPKLLIYAASDLESGIPARFSGSGSGTDFTLTISSLEPEDFATYYCQQSHEDPFTFGQGTKLEIK | 0.00039
2. hMAB-A (2D.2) (antibody, V domains shown) VH: EVQLVESGGGLVKPGGSLRLSCAASGFTFSSYWMHWVRQAPGKGLEWVGEIIPIFGHTNYNEKFKSRFTISLDNSKNTLYLQMGSLRAEDTAVYYCARGGYYYYTGKGVLDYWGQGTTVTVSS VL: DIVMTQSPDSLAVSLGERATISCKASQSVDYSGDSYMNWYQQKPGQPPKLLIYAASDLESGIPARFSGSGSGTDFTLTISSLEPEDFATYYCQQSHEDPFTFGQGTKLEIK | 0.00058

Next, consider the following binder.
Query string: Returns the measured koff for the input binder. Input: hMAB-A (2C.2) (antibody, V domains shown) VH: EVQLVESGGGLVKPGGSLRLSCAASGFTFSSYWMHWVRQAPGKGLEWVGEIIPIFGHTNYNEKFKSRFTISLDNSKNTLYLQMGSLRAEDTAVYYCARGGYYYYPRFGWLDYWGQGTTVTVSS VL: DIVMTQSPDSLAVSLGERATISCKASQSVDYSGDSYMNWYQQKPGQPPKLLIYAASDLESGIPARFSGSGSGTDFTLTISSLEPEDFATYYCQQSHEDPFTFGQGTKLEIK
Result string: 0.00081
